Readings of koff for the listed binders
- experimental_target: T1, monovalent hVISTA-ECD with polyhistidine tail (SEQ ID NO: 325) (human, UniProt Q9H7M9 33-193)
- T1 construct: also called hVISTA-ECD 6-His tag; human VISTA
- T1 sequence (Q9H7M9 other isoform, or with tags, fused parts or gaps limits assumed): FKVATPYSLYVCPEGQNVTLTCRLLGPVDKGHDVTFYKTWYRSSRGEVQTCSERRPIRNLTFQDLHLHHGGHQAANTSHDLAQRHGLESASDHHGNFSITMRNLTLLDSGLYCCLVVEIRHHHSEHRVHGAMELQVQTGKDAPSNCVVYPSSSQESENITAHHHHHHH
- method_summary: SPR, mAb captured on Protein A chip, hVISTA injected, PBST pH 6.0, 37 C
Report the figure in s⁻¹ without appending any unit label.

Below: 2 binders and their reported koff.
binder	unit_tag	koff
P1-077881 (P1-068748 D58Y D100S) (antibody, V domains shown, Reversion mutant of P1-068748 (Kabat names); captured on a Protein A chip) VH: QVQLVESGGGVVQPGRSLRLSCAASGFTFSHHAMHWVRQAPGKGLEWVAIIWYDGSNDYYADSVKGRFTISRDNSKNTLYLQMNSLRAEDTAVYYCARDSGFYSSYYFDYWGQGTLVTVSS VL: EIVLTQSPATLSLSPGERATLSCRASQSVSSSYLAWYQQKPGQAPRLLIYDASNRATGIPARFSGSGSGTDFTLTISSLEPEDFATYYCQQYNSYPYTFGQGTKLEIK	s⁻¹	0.0034
P1-077877 (P1-068748 H32Y D57K) (antibody, V domains shown, Reversion mutant of P1-068748 (Kabat names); captured on a Protein A chip) VH: QVQLVESGGGVVQPGRSLRLSCAASGFTFSHYAMHWVRQAPGKGLEWVAIIWYDGSNKDYADSVKGRFTISRDNSKNTLYLQMNSLRAEDTAVYYCARDSGFYDSYYFDYWGQGTLVTVSS VL: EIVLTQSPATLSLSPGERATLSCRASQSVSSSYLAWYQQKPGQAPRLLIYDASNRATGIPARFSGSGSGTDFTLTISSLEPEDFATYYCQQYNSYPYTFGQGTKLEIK	s⁻¹	0.0019

Okay, now this binder:
Input line: Item P1-077891 (P1-068748 H32Y D100S) (antibody, V domains shown, Reversion mutant of P1-068748 (Kabat names); captured on a Protein A chip) VH: QVQLVESGGGVVQPGRSLRLSCAASGFTFSHYAMHWVRQAPGKGLEWVAIIWYDGSNDDYADSVKGRFTISRDNSKNTLYLQMNSLRAEDTAVYYCARDSGFYSSYYFDYWGQGTLVTVSS VL: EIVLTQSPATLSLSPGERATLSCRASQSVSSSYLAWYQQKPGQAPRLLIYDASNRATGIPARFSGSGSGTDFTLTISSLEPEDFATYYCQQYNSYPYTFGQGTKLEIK : provide koff
Output line: 0.00099
